# Tested on: ACHN renal
# experimental-protocol: NCI-60 one-dose screen, 48 h (100 = growth as untreated, 0 = no growth, -100 = all killed)
# assay-context: 10 µM unless noted
About 83,000 compounds went through this panel and 20% of them were active in at least one assay; those are over-represented in the sample as a whole.
reported-metric: growth (%)
Express your answer in %, writing the number without its unit.

Param readout = growth; param system = ACHN renal; param query = `COC(=O)[C@]12CC[C@@H](C(C)=O)[C@@H]1[C@H]1CC[C@@H]3[C@@]4(C)C/C(=C/c5cccnc5)C(=O)C(C)(C)[C@@H]4CC[C@@]3(C)[C@]1(C)CC2` ; response: value
32.5

Recall the recorded growth for `CC1(C)C(=O)CC[C@]2(C)[C@H]3C(=O)C=C4[C@@H]5C[C@@](C)(C(=O)NCCNCCN)CC[C@]5(C)CC[C@@]4(C)[C@]3(C)CC[C@@H]12` with ACHN renal and state it.
104

Report growth for CC(C)(C)c1[nH]nc2c1C(c1cc3ccccc3[nH]c1=O)Nc1cc(C(=O)OCc3ccccc3)ccc1N2 (centres undefined) tested on ACHN renal.
28.6

Hi! What's the reported growth for `O=c1c(CNc2ccc(S(=O)(=O)Nc3nccs3)cc2)coc2ccccc12` on ACHN renal?
94.2

---

Please respond with reported growth for every item in the list.
# Test system: HT29 colon
# experimental-protocol: NCI-60 one-dose screen, 48 h (100 = growth as untreated, 0 = no growth, -100 = all killed)
# assay-context: 10 µM unless noted
Compounds without any hit were thinned out: in the full panel of roughly 83,000, 20% have a hit.
# number only, unit % dropped from output

GET /values?readout=growth&item= `Cc1cc2nc3c4cc(O)ccc4n(CCN(C)C)c3nc2cc1C`
1.97

# lookup: growth of N#CC1=C(N)Oc2c(c(N)nn2-c2ccccc2)C1c1ccc(Cl)cc1Cl (stereo unspecified)
115

Fill in the blank: the reported growth of `C(=C\c1c[nH]c2ccccc12)/c1ccc2ccccc2n1` is ____.
33.4

What growth value was documented for this compound, `Cn1cnc2c1c(=O)n(CCC(=O)Nc1ccc(F)cc1)c(=O)n2C` ?
86.6

Using the record for `COc1cc2[nH]c(C(=O)c3cc(OC)c(OC)c(OC)c3)c(N)c2cc1C#CC1CC1` , report its growth.
5.53

Which value of growth has been reported for `Cn1cc(-c2csc(-c3cn(C(=O)OC(C)(C)C)c4ccc(Br)cc34)n2)c2cccnc21` in the records?
93.4

Could you share which growth value was measured for `COCCNC1=C(Cl)C(=O)c2ccccc2C1=O` ?
101

Look up growth for this compound: `COc1ccc(-c2cc(/C=C/C(=O)c3ccc(OC)c(OC)c3)[nH]n2)cc1`
1.11

I have this compound here, `Cc1nn2c(-c3nc4cc(Cl)c(Cl)cc4[nH]3)c(-c3ccc(F)cc3)nc2s1` , and I need its recorded growth.
20

What value of growth has been recorded for this entry: `CN(C)CCCCC(C(=O)CBr)(c1ccccc1)c1ccccc1`
8.94

Fill blank: measured growth of the compound `Cn1c2ccccc2c2c3c(c4c5cccnc5[nH]c4c21)C(=O)N(O)C3=O` is ____.
28.9

---

I'd appreciate it if you could supply growth values for the items below.
# Test system: OVCAR-3 ovarian
# experimental-protocol: NCI-60 one-dose screen, 48 h (100 = growth as untreated, 0 = no growth, -100 = all killed)
# assay-context: 10 µM unless noted
The panel holds about 83,000 compounds, 20% with a hit somewhere; the sample as a whole holds those more often. The source made the active and inactive calls. Rule for the calls: active = growth percent below 10; inactive = the rest.

Which growth is listed for `Fc1cccc(-c2[nH]nc3nc(Nc4cccnc4)sc23)c1` ?
-18.3% (active)

I'd like to know its growth. The compound in question is `Cc1nc([P+](c2ccccc2)(c2ccccc2)c2ccccc2)c(Sc2sc(-c3ccccc3)nc2[P+](c2ccccc2)(c2ccccc2)c2ccccc2)o1`
-1.45% (active)

Entry `NCCn1cc(-c2nc(-c3c[nH]c4ncccc34)cs2)c2cc(F)ccc21` has what growth?
85.6% (inactive)

Requested read-out: growth. Entry: `CCCCCCCCNc1cccc2c1C(=O)c1ccccc1C2=O`
92.6% (inactive)

What does the data say about its growth? Entry: `Cc1oc(-c2ccccc2Cl)cc1C(=O)Nc1ccc(S(N)(=O)=O)cc1`
117% (inactive)

Which measured growth value corresponds to `O=C(CI)Nc1ccc(O)c2ccccc12` ?
-29.5% (active)

// growth lookup, key: N#CC1=C(N)Oc2ccc3ccccc3c2C1c1ccccc1 (stereo unspecified)
18.4% (inactive)

Value lookup for growth; key = `CC1(C)C(=O)/C(=C\c2ccco2)C[C@]2(C)[C@H]3CC[C@@H]4[C@@H](C(=O)/C=C/c5ccco5)CC[C@@]4(C)[C@]3(C)CC[C@@H]12`
95.2% (inactive)

What does the record list as growth for `COc1cc2[nH]c(C(=O)c3cc(OC)c(OC)c(OC)c3)c(N)c2cc1C#CC1CC1` ?
2.8% (active)

Value lookup for growth; key = CCOC(=O)C1OC1(c1ccccc1)c1ccccc1 (stereo unspecified)
106% (inactive)

Suppose we examine the compound CC(Cc1ccco1)C(=O)NC(N)=O (stereo unspecified) ; what growth value has been reported?
111% (inactive)

# growth lookup, item NC1=C(C/C(N)=N\O)C(c2ccccc2Cl)c2c(ccc3ccccc23)O1 (stereo unspecified)
77.9% (inactive)

Which growth value is on record for `Cc1ccc2c(c1)c(-c1nc(-c3c[nH]c4ncccc34)cs1)cn2C` ?
139% (inactive)

Fill in the blank: the reported growth of `CC1(C)[C@@H](O)CC[C@]2(C)[C@H]3CC[C@@H]4[C@H]5[C@H](C(=O)/C=C/c6ccc(C(F)(F)F)cc6)CC[C@]5(CO)CC[C@@]4(C)[C@]3(C)CC[C@@H]12` is ____.
51.8% (inactive)

# lookup: growth of `C/C(=N\Nc1ccc2ccccc2n1)c1ccccn1`
8.54% (active)

// lookup growth for `CN(C)CCCCC(C(=O)CBr)(c1ccccc1)c1ccccc1`
-44% (active)

Find the recorded growth belonging to `CCCCCCCC(=O)SCC/C=C/[C@@H]1CC(=O)NCc2cccc(n2)CN(Cc2ccc3ccccc3c2)CC(=O)N[C@@H](C(C)C)C(=O)O1` and report it.
47.3% (inactive)

Which growth is reported for this compound? `COc1ccc2c(c1)c(-c1nc(-c3c[nH]c4ncccc34)cs1)cn2CCNC(=O)OC(C)(C)C`
84.4% (inactive)

# growth lookup, item C#Cc1cccc(NC(=O)C2CCCN(C(=O)CCl)C2)c1 (stereo unspecified)
5.16% [8.25 µM] (active)

Find the recorded growth belonging to `Nc1nc2c3ccncc3cc(-c3cccc(Cl)c3)c2c2cnccc12` and report it.
54.6% (inactive)

Tell me the measured growth of `NNC(=O)c1nc2ccccc2[nH]1` , please.
108% (inactive)

---

# System: HOP-92 NSCLC
# experimental-protocol: NCI-60 one-dose screen, 48 h
# assay-context: 10 µM unless noted
Compounds without any hit were thinned out: in the full panel of roughly 83,000, 20% have a hit. Calls of active or inactive are those of the source. Rule for the calls: active = growth percent below 10; inactive = the rest.
# valid calls are active, inactive; nothing else

Please share the test call associated with `Cc1cccc(C)c1NC(=O)CSC(=S)N1CCN(CCOCCO)CC1` .
inactive

How did this test come out for `COc1ccc2nc(-c3c(-c4ccccc4)nc4ncccn34)[nH]c2c1` ?
inactive

Please share the test call associated with `Nc1c(C(=O)Nc2c(Cl)cccc2Cl)sc2nc3c(cc12)C(=O)CCC3` .
inactive

In this assay, the call recorded for `Cc1cc2nc3c4cc(O)ccc4n(CCN(C)C)c3nc2cc1C` was what?
inactive

GET /call?item= `Cn1nc(-c2ccccc2)c2c(-c3ccccc3)onc2c1=O` returns the recorded outcome of this test.
inactive

So what was the verdict on `C=C1C(=O)O[C@H]2[C@H]1CC/C(Cn1cc(-c3ccc(F)cc3)nn1)=C\CC[C@@]1(C)O[C@@H]21` in this test?
active

For `Clc1ccc2[nH]cc(-c3nc(-c4c[nH]c5ncccc45)cs3)c2c1` , what call appears in the results of this test?
inactive

Hey, what did the test say about N#CC1=C(N)Oc2ccc3ccccc3c2C1c1ccccc1 (stereo not given) ?
inactive

Per the assay record, what outcome was assigned to `COc1cc(-c2cc3ncccc3c3[nH]c(=O)c4cccnc4c23)cc(OC)c1OC` ?
inactive

Kindly provide the recorded test outcome for the following compound: `CCCCCCCCNc1cccc2c1C(=O)c1ccccc1C2=O`
inactive

---

For each of the molecules below, state its growth.
# Tested on: UO-31 renal
# experimental-protocol: NCI-60 one-dose screen, 48 h (100 = growth as untreated, 0 = no growth, -100 = all killed)
# assay-context: 10 µM unless noted
Compounds without any hit were thinned out: in the full panel of roughly 83,000, 20% have a hit.
A number alone suffices; assume %.

Need growth of `O=C(NO)c1ccc(Cn2c(=O)n(CCc3ccc(O)cc3)c(=O)c3ccccc32)cc1` , thanks.
88.6

Item under review: `Fc1ccc(Nc2ccc3c(OCCCN4CCOCC4)cccc3n2)cc1F` . Reported growth?
63.8

// query growth value for entry CCOC(=O)C1OC1(c1ccccc1)c1ccccc1 (stereo not given)
88.1

Recorded growth of `O=C(O[C@@H]1Cc2c(O)cc(O)cc2O[C@@H]1c1cc(O)c(O)c(O)c1)c1cc(O)c2c(c1)OCO2` , please.
92.2

What does the record list as growth for `N#Cc1c(-c2ccco2)nc2c(c(-c3ccccc3)nn2-c2ccccc2)c1-c1ccc(O)cc1` ?
92
